Test system: UO-31 renal
Assay: NCI tumour cell line growth inhibition, 48 h

{"compound": "COc1ccc(-c2nn(-c3cccc(NC(=O)c4ccc(N5CCOCC5)c(C(F)(F)F)c4)c3)cc2-c2ccncc2)cc1Cl", "TGI": "> 50 µM"}
{"compound": "O=[N+]([O-])c1ccc(Cl)cc1C1SCc2nc3ccccc3n21 (stereo not given)", "TGI": "> 100 µM"}
{"compound": "ClCc1ccc(Cn2cnc3c(Cl)nc(Cl)nc32)cc1", "TGI": "35.5 µM"}
{"compound": "CC1=C(C(=O)Nc2ccc([N+](=O)[O-])cc2)C(c2ccccc2F)C(C(=O)Nc2ccc([N+](=O)[O-])cc2)=C(C)N1", "TGI": "51.7 µM"}
{"compound": "N#Cc1cc(S(=O)(=O)Nc2nc3ccccc3s2)c(SCc2ccccc2)cc1Cl", "TGI": "42.1 µM"}
{"compound": "O=S(=O)(NCCNc1nccc(-c2c(-c3ccc(F)cc3)nc3sccn23)n1)c1ccccc1", "TGI": "39.8 µM"}
{"compound": "Cn1cnc([N+](=O)[O-])c1Sc1ncn[nH]1", "TGI": "> 100 µM"}
{"compound": "Cc1cc(-c2nc3cccc(F)c3s2)ccc1N", "TGI": "> 100 µM"}
{"compound": "O=C(/C=C(\\O)c1ccccc1)c1cc(-c2ccccc2)n(-c2ccccc2)n1", "TGI": "39.9 µM"}
{"compound": "Cn1c(=O)c(Oc2ccc(F)cc2F)cc2cnc(NCCS(C)(=O)=O)nc21", "TGI": "> 25 µM"}
{"compound": "Cc1ccc(S(=O)(=O)NNC2Oc3cc4c(cc3C(c3ccccc3O)C2C)OCO4)cc1 (stereo not given)", "TGI": "23 µM"}
{"compound": "O=C1OC(CN2CCOCC2)CN1/N=C/c1ccc([N+](=O)[O-])o1 (stereo not given)", "TGI": "> 100 µM"}
{"compound": "Cc1nc2c(=O)n3c4c(cccc4c2o1)CCC3", "TGI": "> 100 µM"}
{"compound": "O=C(/C=C1/Nc2ccc([N+](=O)[O-])cc2NC1O)c1cccc([N+](=O)[O-])c1 (stereo not given)", "TGI": "> 100 µM"}
{"compound": "CCN(CC)CCO/N=C1/C=C2CCC3C(CC[C@@]4(C)C3CC[C@]4(C)O)[C@@]2(C)CC1 (stereo not given in full)", "TGI": "18.9 µM"}
{"compound": "C[C@]12CC[C@H](O)CC1=CC[C@@H]1C2CC[C@]2(C)Nc3c(cnn3-c3ccc(F)cc3)CC12 (stereo not given in full)", "TGI": "> 92.4 µM"}
{"compound": "CC1=C(C(=O)OC(C)C)C(c2ccccc2C(F)(F)F)C(C(=O)OC(CO[N+](=O)[O-])CO[N+](=O)[O-])=C(C)N1 (stereo not given)", "TGI": "4.37 µM"}
{"compound": "COP(=O)(OC)/C(=C\\c1cn(C(c2ccccc2)(c2ccccc2)c2ccccc2)cn1)NC(C)=O", "TGI": "> 100 µM"}
{"compound": "CN(C)CCN(C(=Nc1ccccc1)N1CCCC1)c1ccccc1", "TGI": "> 100 µM"}
{"compound": "C/C=C/[C@H](O[Si](C)(C)C(C)(C)C)[C@@H](O)/C=C/C(=O)OCC", "TGI": "42.5 µM"}
{"compound": "O=C1OC(OCC#CCOC2OC(=O)C(Cl)=C2Cl)C(Cl)=C1Cl (stereo not given)", "TGI": "24 µM"}
{"compound": "CC[C@@H]1/C=C/C=C/C[C@H](C)[C@@H](O)[C@](C)(O)C(=O)[C@H](C)[C@@H](O)[C@H](C)C(=O)[C@H](C)[C@@H](O)[C@H](C)/C=C/C(=O)O[C@H]2[C@@H](C)[C@@H](CC1)O[C@@]1(CC[C@@H](C)[C@@H](CC(C)O)O1)[C@@H]2C (stereo not given in full)", "TGI": "12.3 µM"}
{"compound": "CCC1CN2CCC3(c4ccccc4)CC(C(=O)OC)=CC1C23 (stereo not given)", "TGI": "27.1 µM"}
{"compound": "CC(C)c1cc(OCC(O)CO)cc(C(C)C)c1 (stereo not given)", "TGI": "> 100 µM"}
{"compound": "Cc1cccc(C(C)(C)C)c1NC(=O)CC1Sc2ccccc2NC1=O (stereo not given)", "TGI": "> 100 µM"}
{"compound": "O=[N+]([O-])c1cccc(C2=NOC3C4CCC(C4)C23)c1 (stereo not given)", "TGI": "> 100 µM"}
{"compound": "COc1cccc(-c2nc(-c3cnccn3)n(COCCO)n2)c1", "TGI": "> 100 µM"}
{"compound": "CCc1nc(N)nc(N)c1-c1ccc(Cl)c(N=CN(C)C)c1", "TGI": "> 100 µM"}
{"compound": "CCOC(=O)/C(C#N)=C/c1ccc2c(c1)CC1(C2)Cc2cc(CC)c(C(C)O)cc2C1 (stereo not given)", "TGI": "60.8 µM"}
{"compound": "CN(C)C(=S)/N=c1\\ss/c(=N\\S(=O)(=O)c2ccccc2)n1N(C)C", "TGI": "> 100 µM"}
{"compound": "COC(=O)C1=CC2OC1(C)CCC2=O (stereo not given)", "TGI": "> 100 µM"}
{"compound": "O=C1NC(=O)C2C1N(Cc1ccccc1)C(=O)N2Cc1ccccc1 (stereo not given)", "TGI": "> 100 µM"}
{"compound": "Cc1cc2c(C)n(Cc3ccc(Cl)cc3Cl)nc2c(C(=O)O)c1C", "TGI": "> 100 µM"}
{"compound": "Cc1nc(Nc2nc3ccccc3o2)nc(-c2cccc([N+](=O)[O-])c2)c1C(=O)Nc1ccc(F)c(Cl)c1", "TGI": "7.09 µM"}
{"compound": "CN(C)CC1CN=C(NC(=O)Nc2ccccc2)O1 (stereo not given)", "TGI": "> 100 µM"}
{"compound": "O=S(=O)(C/C(=N\\O)c1ccccc1)c1ccccc1", "TGI": "> 100 µM"}
{"compound": "CC(=O)c1sc(=N)n(-c2c(C)cccc2C)c1C", "TGI": "> 100 µM"}
{"compound": "Cc1ncc([N+](=O)[O-])n1CCNC(=O)Cn1c([N+](=O)[O-])cnc1C", "TGI": "> 100 µM"}
{"compound": "CCCNc1nc2ccccc2c2c1S(=O)(=O)c1ccc(Cl)cc1C2=O", "TGI": "> 50 µM"}
{"compound": "CC(=O)ON(C(C)=O)c1ccc(-c2nc3ccccc3s2)cc1C", "TGI": "> 100 µM"}
